target: p38α (Homo sapiens); assay: P38α enzyme inhibition assay (ATF-2 phosphorylation ELISA); details: activated p38α, substrate ATF-2, ATP 100 μM, 60 minutes incubation, photometric readout 405 nm; read-out: Kinase assay IC50
Sequence (Q16539 whole entry): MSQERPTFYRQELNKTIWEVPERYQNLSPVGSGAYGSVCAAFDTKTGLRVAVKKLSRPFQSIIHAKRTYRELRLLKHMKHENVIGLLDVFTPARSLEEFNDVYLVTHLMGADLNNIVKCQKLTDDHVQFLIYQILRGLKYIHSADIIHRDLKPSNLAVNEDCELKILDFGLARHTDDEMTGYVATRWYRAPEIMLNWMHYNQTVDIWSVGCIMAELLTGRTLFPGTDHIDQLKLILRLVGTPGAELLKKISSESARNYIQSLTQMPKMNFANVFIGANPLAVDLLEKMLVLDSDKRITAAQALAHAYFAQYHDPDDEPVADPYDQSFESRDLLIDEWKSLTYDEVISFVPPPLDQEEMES
assay_readout: IC50 (nM)
Answers are plain numbers, in nM.

Prompt: What does the data say about its IC50? Entry: OCCSc1nc(-c2ccc(F)cc2)c(-c2ccnc(NC3CCOCC3)c2)[nH]1
Response: 2.3

Prompt: Need IC50, item CC(Nc1cc(-c2[nH]c(SCC(=O)O)nc2-c2ccc(F)cc2)ccn1)c1ccccc1 (stereo not shown)
Response: 36

Prompt: Tell me the measured IC50 of CC(C)C(C)Nc1cc(-c2[nH]c(SCCO)nc2-c2ccc(F)cc2)ccn1 (stereo not shown) , please.
Response: 10

Alright, here's another molecule for you.
Prompt: Entry CC(C)C(C)Nc1cc(-c2[nH]c(SC[C@@H](O)CO)nc2-c2ccc(F)cc2)ccn1 (stereo partly shown) has what IC50?
Response: 9.5
